Hey, just so you know, these numbers are from patent US20180362643A1.

Biological target: T1, carboxy terminal PACAP38 peptide (amino acids 28-38) (human, ends and bridges not checked)
T1 construct: also called C-terminal Peptide; C-terminal PACAP peptide
T1 peptide: GKRYKQRVKNK
Experiment: ELISA screen of B-cell culture supernatant; C-terminal peptide at 500 ng/mL
Ends that are not written are not given here.
measuredMetric: Optical Density (OD)
Report the value in OD with no unit label.

binder	unitAbbreviation	Optical Density
mAb5 (antibody, V domains shown, Rabbit monoclonal antibody (SLAM), recombinant; also called monoclonal anti-PACAP antibody 5; 5 (c71)) VH: QSVEESGGRLVTPGTPLTLTCTVSGFSLSTYNMCWVRQAPGKGLEWVGFINSDDSAYYASWAKGRFTFSKTSTTVDLKIASPTTEDTATYFCARYDWDYYYSRLDLWGPGTLVTVSS VL: DIVLTQTPASVSAAVGGTVSISCQSSESVYNNNYLSWFQQKPGQPPKLLIYGASTLASGVPSRFEGSGSGTQFTLTISDVQCDDAATYYCLGDYIIIENIFGGGTEVVVKG	OD	0.05

Bench note: what Optical Density did mAb1 (antibody, V domains shown, Rabbit monoclonal antibody (SLAM), cloned, recombinantly expressed and purified; also called monoclonal anti-PACAP antibody 1; 1 (c20)) VH: QSLEESGGDLVKPGASLTLTCKASGIAFSNDYMCWVRQAPGKGLEWIACIFTGSSGSTYYASWAKGRFTISKTSSTTVTLQMTSLTAADTATYFCARDRAISVLGYFYAAYFFDFWGPGTLVTVSS VL: DVVMTQTPSPVSAAVGGTVTINCRASEDIESFLAWYQQKPGQPPKLLISRTSTLESGVSSRFKGSGSGTEFILTISDLECADAATYYCQCTDGSSSSSSYGWDAFGGGTEVVVKG show? 5.33

Proceed to mAb6 (antibody, V domains shown, Rabbit monoclonal antibody (SLAM), recombinant; also called monoclonal anti-PACAP antibody 6; 6 (c55)) VH: QLEESGGGLVQPGASLTLTCTTSGFSLSDNYLCWVRQAPGRGLEWVACIGIVLRSTGATYYASWAEGRFTISKTSPTTVTLEMTSLTAADTATYFCALDLGYGGPLWGPGTLVTVSS VL: AQVLTQTPASVSAAVGGTVTINCQASQSVYNNKNLAWYQQKPGQPPKLLIYFSSTLASGVPSRFRGSGSGTQFTLTISGVQCGDAATYYCLGEFGSIWAFGGGTEVVVKG 0.05
